- target.under.test: UniProtKB P53341
- assay.explanation: α-glucosidase inhibition assay
pIC50: −log10 of the molar value.
reported.metric: pIC50

Here is how some molecules turned out for pIC50.
INSERT INTO measurements (substance_smiles, test_result) VALUES
  ('COc1ccc2nc3cc(Cl)ccc3c(SCc3cn(Cc4ccc(Cl)cc4Cl)nn3)c2c1', 3.64),
  ('COc1ccc2nc3cc(Cl)ccc3c(SCc3cn(Cc4ccccc4C)nn3)c2c1', 3.32),
  ('COc1ccc2nc3cc(Cl)ccc3c(SCc3cn(Cc4ccccc4Br)nn3)c2c1', 3.52),
  ('COc1ccc2nc3cc(Cl)ccc3c(SCc3cn(Cc4ccc(C)cc4)nn3)c2c1', 3.91),
  ('COc1ccc2nc3cc(Cl)ccc3c(SCc3cn(Cc4cccc(F)c4)nn3)c2c1', 3.79);

1. COc1ccc2nc3cc(Cl)ccc3c(SCc3cn(Cc4ccccc4)nn3)c2c1
2. COc1ccc2nc3cc(Cl)ccc3c(SCc3cn(Cc4ccc(F)cc4)nn3)c2c1
Which of the two items, 1 and 2 , has the greater recorded pIC50? Output the label that corresponds to your choice.
2

###

- target.under.test: α-glucosidase (Saccharomyces cerevisiae, UniProt P53341)
- Sequence (P53341 whole entry): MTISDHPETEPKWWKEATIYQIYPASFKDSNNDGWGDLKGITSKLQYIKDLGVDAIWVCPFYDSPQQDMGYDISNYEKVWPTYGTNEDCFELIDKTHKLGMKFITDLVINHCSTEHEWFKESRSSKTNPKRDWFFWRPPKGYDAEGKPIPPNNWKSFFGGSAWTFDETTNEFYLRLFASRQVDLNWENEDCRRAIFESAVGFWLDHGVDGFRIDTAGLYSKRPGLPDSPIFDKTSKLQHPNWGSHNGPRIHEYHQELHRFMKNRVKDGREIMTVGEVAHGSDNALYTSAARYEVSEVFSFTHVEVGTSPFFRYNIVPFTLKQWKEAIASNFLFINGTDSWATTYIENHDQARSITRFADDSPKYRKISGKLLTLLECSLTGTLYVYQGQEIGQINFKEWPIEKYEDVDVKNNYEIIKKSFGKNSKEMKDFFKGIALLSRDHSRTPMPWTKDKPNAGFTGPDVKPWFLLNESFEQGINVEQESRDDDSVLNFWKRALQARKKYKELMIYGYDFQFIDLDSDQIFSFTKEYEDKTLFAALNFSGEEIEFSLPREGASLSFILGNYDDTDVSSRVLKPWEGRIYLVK
reported.metric: pKi
In plain terms, pKi is the concentration in mol/L turned into minus its base-10 logarithm.

pKi of `COc1ccc2nc3cc(Cl)ccc3c(SCc3cn(Cc4ccc(F)cc4)nn3)c2c1` on α-glucosidase (Saccharomyces cerevisiae, UniProt P53341)?
4.01
